What seed-corrected z-score was measured for each of the following?
assay_procedure: Identification of proteins required for the processing of the EWS-FLI1 nascent transcript;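 also: robust z of luciferase light less the median z of siRNAs with the same seed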
measurement_parameters: TC32 Ewing sarcoma NR0B1-luc vs CMV-luc (EWS-FLI1 target promoter against control promoter), 48 h; screened at 20 nM (by protocol)
Over roughly 59,000 sequences, the read-out has its median near -0.00055; the lowest 2% begin near -2. Shown is part of a subset that was picked to be rich in the lowest values.
Format: numeric value only, no unit, no commentary.

Prompt: Value lookup for seed-corrected z-score; key = AUAUGUAUCAGAACUGGGA against SAE1
Response: -0.67

Prompt: Which seed-corrected z-score value is on record for UUACCUGCAGAAACCUUCU against MUC1 ?
Response: -2.32

Prompt: Request the reported seed-corrected z-score associated with UUCCCAUUGAUACUCAUGG against LECT1
Response: -0.035

Prompt: I am curious: what seed-corrected z-score value has been reported for UUACGGAUCAUGUGGUCUU against SCNN1B ?
Response: 0.029

Prompt: Looking for the measured seed-corrected z-score of AUAAGUUGCAGCAAAAUCC against MAB21L1 , can you help?
Response: -0.725

Prompt: Query: seed-corrected z-score; subject: UCAGAGAUCAAAGAGAAGU against TUBB4A
Response: 0.356

Prompt: Please give the measured seed-corrected z-score for this sequence: AUCUUUAGAACAUCGGUGG against SLC25A14
Response: -0.984

Prompt: Requested read-out: seed-corrected z-score. Entry: UGAGGUUAUACGUUCCCUG against KIAA1549
Response: -0.0625

Prompt: I'd like to know its seed-corrected z-score. The sequence in question is AGUUUCUCAAUGUCUGGGC against PAGR1
Response: -3.83

Prompt: Name the recorded seed-corrected z-score for UGACAAAUCACUGUAUGUC against ZIM2 .
Response: -0.582

Prompt: Consider the sequence UUUGGUAGAAAAUUGCAGA against FJX1 and give its measured seed-corrected z-score.
Response: -0.707

Prompt: Returns the measured seed-corrected z-score for the input sequence. Input: AUCUUGGUCACUGGAGGCG against SFRP5
Response: -3.64

Prompt: What value of seed-corrected z-score has been recorded for this entry: UAGGUCUUAGGAGUCAUCU against RPL9P25
Response: -2.06

Prompt: Endpoint output: seed-corrected z-score of UCACGAACUGGACUUUACC against GRM7 . Value?
Response: -0.806

Prompt: So what does the record say about seed-corrected z-score for UAAGGUGUGAACUAUAAGG against ZNF267 ?
Response: -0.0939

Prompt: Entry UGCAGGAUGACCAAAGUGC against LGALS14 has what seed-corrected z-score?
Response: 0.705

Prompt: Would you kindly share the measured seed-corrected z-score for UUUCUGCACAGGAAUAUCG against CD37 ?
Response: -3.03

Prompt: // seed-corrected z-score lookup, key: AAACUGACCAUUCACUACC against DCAF12
Response: -10.7

Prompt: Report seed-corrected z-score for UGAGGGUUGAGUGUAAGUC against FUK please.
Response: -0.673

Prompt: I would be grateful if you could share the reported seed-corrected z-score for UUGGAGCAAAAUACAGUGG against NQO1 .
Response: 0.331

Prompt: Which seed-corrected z-score value belongs to UUAGCUGUGAGUGCUUUCC against TNFRSF11A ?
Response: -2.35

Prompt: Given the sequence ACUAGUACUGGGAAGGUCC against CDKN1C , what is its reported seed-corrected z-score?
Response: -2.28

Prompt: Quick one: seed-corrected z-score of ACAGUACAUAGUAGGGUGG against PRR34 ?
Response: -2.82

Prompt: // query seed-corrected z-score value for entry UUCAUUAAGAAGCACCUGG against NDFIP2
Response: 0.91

Prompt: Suppose we examine the sequence UUUCAUAAUUGUCUCACUG against MTHFD2 ; what seed-corrected z-score value has been reported?
Response: 0.341

Prompt: What seed-corrected z-score value was documented for this sequence, AAAGGUACUCUUGGGCAGG against EEF1G ?
Response: -0.242
